Tested on: MDA-MB-231
Assay: Antiproliferative activity against human MDA-MB-231 cells assessed as reduction in cell viability incubated for 72 hrs by WST-8 assay
Type: functional, cell-based
Details: MDA-MB-231, 72 h
Please respond with reported pIC50 for every item in the list.
Numbers only, as −log10 of the molar value.

Record O=C(CCCCCCn1c(C(=O)NC2C3CC4CC(C3)CC2C4)cc2ccc(Br)cc21)NO (stereo not drawn) ; system MDA-MB-231; pIC50 = 5.75

Now consider the entry below.
Reading of pIC50 for `O=C(CCCCCCn1cc(C(=O)NC23CC4CC(CC(C4)C2)C3)c2ccccc21)NO` with MDA-MB-231: 4.68

* * *

These compounds were tested on Histone deacetylase 1 (Homo sapiens); log10 IC50 is the recorded read-out.
Sequence (Q13547 whole entry): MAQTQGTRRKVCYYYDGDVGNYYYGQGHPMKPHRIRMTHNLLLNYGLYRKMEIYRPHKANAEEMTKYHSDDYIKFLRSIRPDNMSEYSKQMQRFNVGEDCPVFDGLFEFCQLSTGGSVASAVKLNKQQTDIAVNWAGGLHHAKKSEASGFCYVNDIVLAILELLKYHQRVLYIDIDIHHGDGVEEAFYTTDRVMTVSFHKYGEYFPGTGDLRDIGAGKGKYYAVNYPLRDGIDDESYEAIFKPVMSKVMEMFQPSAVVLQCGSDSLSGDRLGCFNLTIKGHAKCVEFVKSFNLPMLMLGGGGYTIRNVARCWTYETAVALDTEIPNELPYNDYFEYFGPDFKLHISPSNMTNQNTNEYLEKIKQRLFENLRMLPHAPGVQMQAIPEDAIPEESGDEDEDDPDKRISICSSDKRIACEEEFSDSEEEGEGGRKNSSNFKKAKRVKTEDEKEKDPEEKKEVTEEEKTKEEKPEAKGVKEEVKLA
A difference of one corresponds to tenfold IC50; all values are log10 with IC50 in nM.

Reference set, count: 5
log10 IC50 reading for O=C(CCCCn1cc(C(=O)NC2C3CC4CC(C3)CC2C4)c2ccccc21)NO (configuration not stated) : 1.73

// recorded log10 IC50 for COc1ccc2c(c1)cc(C(=O)NC1C3CC4CC(C3)CC1C4)n2CCCCCCC(=O)NO (configuration not stated) : 0.06

get_value(item= `O=C(CCCCCCn1cc(C(=O)NC2CCCCCC2)c2ccccc21)NO` , readout=log10 IC50) returns 0.30

Recorded result, `O=C(CCCCCCn1cc(C(=O)N2CCOCC2)c2ccccc21)NO` , log10 IC50: 0.95

Measured log10 IC50 of O=C(CCCCCCn1cc(C(=O)NC2C3CC4CC(C3)CC2C4)c2ccccc21)NO (configuration not stated) : 0.31

Shift focus to the following entry.
Noted for O=C(NC1C2CC3CC(C2)CC1C3)c1cn(CCCCCCS)c2ccccc12 (configuration not stated) : its log10 IC50 reads 2.23

* * *

Target: Protein deacetylase HDAC6 (Homo sapiens, UniProt Q9UBN7)
Sequence (Q9UBN7 whole entry): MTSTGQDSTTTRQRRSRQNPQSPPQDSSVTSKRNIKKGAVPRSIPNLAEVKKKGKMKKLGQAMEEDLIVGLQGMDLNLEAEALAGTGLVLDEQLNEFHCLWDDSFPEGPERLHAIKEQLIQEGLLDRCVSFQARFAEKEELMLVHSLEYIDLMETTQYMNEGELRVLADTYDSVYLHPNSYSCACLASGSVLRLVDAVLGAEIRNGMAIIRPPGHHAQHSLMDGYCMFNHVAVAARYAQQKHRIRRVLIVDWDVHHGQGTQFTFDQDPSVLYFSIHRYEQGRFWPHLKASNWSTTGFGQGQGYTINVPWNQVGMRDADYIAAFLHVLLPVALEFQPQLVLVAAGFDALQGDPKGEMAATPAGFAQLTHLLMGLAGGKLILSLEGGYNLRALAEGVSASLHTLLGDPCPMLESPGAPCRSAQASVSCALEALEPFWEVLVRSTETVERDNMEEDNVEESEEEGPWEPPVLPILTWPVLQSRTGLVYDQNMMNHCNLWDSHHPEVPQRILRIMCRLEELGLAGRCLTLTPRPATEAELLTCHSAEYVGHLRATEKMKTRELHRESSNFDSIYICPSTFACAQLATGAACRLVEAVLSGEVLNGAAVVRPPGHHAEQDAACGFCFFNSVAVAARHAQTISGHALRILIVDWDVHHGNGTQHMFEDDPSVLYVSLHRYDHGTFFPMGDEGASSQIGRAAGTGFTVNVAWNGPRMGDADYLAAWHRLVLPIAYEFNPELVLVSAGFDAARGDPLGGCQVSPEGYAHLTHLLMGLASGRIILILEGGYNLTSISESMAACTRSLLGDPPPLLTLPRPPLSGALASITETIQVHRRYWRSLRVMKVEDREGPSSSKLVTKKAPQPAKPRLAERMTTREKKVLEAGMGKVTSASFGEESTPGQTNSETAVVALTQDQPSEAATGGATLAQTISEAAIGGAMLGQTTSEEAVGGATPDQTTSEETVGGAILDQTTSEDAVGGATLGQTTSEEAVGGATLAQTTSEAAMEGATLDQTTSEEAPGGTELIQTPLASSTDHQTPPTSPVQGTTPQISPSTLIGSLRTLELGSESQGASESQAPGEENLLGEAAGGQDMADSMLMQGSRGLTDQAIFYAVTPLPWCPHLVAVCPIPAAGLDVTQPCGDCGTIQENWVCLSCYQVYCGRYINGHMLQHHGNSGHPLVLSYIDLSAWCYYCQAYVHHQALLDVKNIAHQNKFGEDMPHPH
# note: boundary value 2 nM maps to f; IC50 below it maps to t

Solved entries:
*Q* Check if IC50 falls below 2 nM for CC(=O)SCCCCCCCn1cc(C(=O)NC2C3CC4CC(C3)CC2C4)c2ccccc21 (configuration not stated) .
*A* f

*Q* Consider the compound CC(=O)SCCCCCCn1cc(C(=O)NC2C3CC4CC(C3)CC2C4)c2ccccc21 (configuration not stated) . Is its IC50 strictly less than 2 nM?
*A* f

*Q* For COc1ccc2c(c1)cc(C(=O)NC1C3CC4CC(C3)CC1C4)n2CCCCCCC(=O)NO (configuration not stated) , is the recorded IC50 below the cut-off of 2 nM?
*A* f

*Q* Strictly below 2 nM: is that where IC50 of `O=C(CCCCCCn1cc(C(=O)NC23CC4CC(CC(C4)C2)C3)c2ccccc21)NO` sits?
*A* t

*Q* Bench note: check whether O=C(CCCCCn1cc(C(=O)NC2C3CC4CC(C3)CC2C4)c2ccccc21)NO (configuration not stated) shows IC50 below 2 nM
*A* f

*Q* Lab note: IC50 threshold 2 nM. Does this compound come in strictly under it? O=C(CCCCCCn1cc(C(=O)NC2C3CC4CC(C3)CC2C4)c2ccccc21)NO (configuration not stated)
*A* t

Next:
*Q* Bench note: check whether O=C(CCCCCCn1nc(C(=O)NC2C3CC4CC(C3)CC2C4)c2ccccc21)NO (configuration not stated) shows IC50 below 2 nM
*A* f
